Tested on: KASUMI-10
test_protocol: selective drug sensitivity score (sDSS, relative to normal bone marrow) (sDSS (score)); higher = more potent and effective on the cell line relative to normal bone marrow cells;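 note: ALL cell lines in 384-well plates, five doses spanning 10,000-fold, each plate scaled between vehicle and 100 µmol/L benzalkonium chloride controls, sDSS an adapted area-under-curve metric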
condition_set: 72 h
measurement_type: selective drug sensitivity score
Answers are plain numbers.

Name the reported selective drug sensitivity score value associated with the molecule CC(C)C[C@H](NC(=O)[C@@H](COC(C)(C)C)NC(=O)[C@H](Cc1ccc(O)cc1)NC(=O)[C@H](CO)NC(=O)[C@H](Cc1c[nH]c2ccccc12)NC(=O)[C@H](Cc1cnc[nH]1)NC(=O)[C@@H]1CCC(=O)N1)C(=O)N[C@@H](CCCNC(=N)N)C(=O)N1CCC[C@H]1C(=O)NNC(N)=O [Goserelin] (top concentration 10000 nM)
-0.06

Can you give me selective drug sensitivity score for all of these, one by one?
1. CCOc1ccn(-c2ccc(F)cc2)c(=O)c1C(=O)Nc1ccc(Oc2ccnc(N)c2Cl)c(F)c1 (top concentration 2500 nM)
2. CN(C(=O)c1ccc(F)cc1C(F)(F)F)C1CCN(c2nnc(-c3ccnn3C)c3ccccc23)CC1 [Taladegib] (top concentration 10000 nM)
3. CC(C)[C@@H](CS(=O)(=O)C(C)C)N1C(=O)[C@@](C)(CC(=O)O)C[C@H](c2cccc(Cl)c2)[C@H]1c1ccc(Cl)cc1 [AMG-232] (top concentration 10000 nM)

2.6
-1.12
10.1

* * *

Test system: MHH-CALL-4
test_protocol: selective drug sensitivity score (sDSS, relative to normal bone marrow) (sDSS (score)); higher = more potent and effective on the cell line relative to normal bone marrow cells
condition_set: 72 h
Would you mind telling me the reported selective drug sensitivity score of each entry?
Numbers only.

Please review the following examples before continuing.
MHH-CALL-4 / selective drug sensitivity score / COc1cc(CCc2cc(NC(=O)c3ccc(N4CC(C)NC(C)C4)cc3)n[nH]2)cc(OC)c1 (configuration not stated) [AZD4547] (top concentration 1000 nM) : value?
-0.14

Give recorded selective drug sensitivity score with MHH-CALL-4 for the following molecule: O=C(Nc1cccc(NC(=O)c2cccc(O)c2O)c1)c1cccc(O)c1O [MST-312] (top concentration 10000 nM)
1.8

# query: selective drug sensitivity score | item O=C(CCCCCCNC(=O)c1cnc(N(c2ccccc2)c2ccccc2)nc1)NO [Rocilinostat] (top concentration 10000 nM) | system: MHH-CALL-4
3.74

Quick check: selective drug sensitivity score on MHH-CALL-4, item CN(Cc1cnc2nc(N)nc(N)c2n1)c1ccc(C(=O)N[C@@H](CCC(=O)O)C(=O)O)cc1 [Methotrexate] (top concentration 5000 nM) ?
9.68

Can you look up selective drug sensitivity score on MHH-CALL-4 for CC(C)Nc1cc(-c2c[nH]c(C(=O)N[C@H](CO)c3cccc(Cl)c3)c2)c(Cl)cn1 [Ulixertinib] (top concentration 10000 nM) ?
2.22

Return reported selective drug sensitivity score values for all items listed beneath this line.
1. CC(=O)O[C@]1(C(C)=O)CC[C@H]2[C@@H]3C=C(C)C4=CC(=O)CC[C@]4(C)[C@H]3CC[C@@]21C [Megestrol_acetate] (top concentration 10000 nM)
2. CCOc1ccn(-c2ccc(F)cc2)c(=O)c1C(=O)Nc1ccc(Oc2ccnc(N)c2Cl)c(F)c1 (top concentration 2500 nM)
3. CC(C)[C@@H](CS(=O)(=O)C(C)C)N1C(=O)[C@@](C)(CC(=O)O)C[C@H](c2cccc(Cl)c2)[C@H]1c1ccc(Cl)cc1 [AMG-232] (top concentration 10000 nM)
4. Cn1cc(CNCC2CCN(c3ncc(C(=O)NO)cn3)CC2)c2ccccc21 [Quisinostat] (top concentration 1000 nM)
5. Nc1nc(Nc2ccc3c(c2)CC[C@@H](N2CCCC2)CC3)nn1-c1cc2c(nn1)-c1ccccc1CCC2 [BGB324] (top concentration 10000 nM)
6. NC(=O)/C(=C/n1cnc(-c2cc(C(F)(F)F)cc(C(F)(F)F)c2)n1)c1cncnc1 [Eltanexor] (top concentration 10000 nM)

[7.52, 0, 10.9, 5.98, -2.88, 6.76]

Query the reported selective drug sensitivity score for MHH-CALL-4; item: NC(=O)N1CCC(CC(=O)N2CCC([C@H]3c4ncc(Br)cc4CCc4cc(Cl)cc(Br)c43)CC2)CC1 [Lonafarnib] (top concentration 100000 nM)
7.44
